Biological target: PD-L1 (Homo sapiens)
Construct: determine if they can specifically dimerize the extracellular domains of PD-L1
Sequence (Q9NZQ7 19-238 limits assumed): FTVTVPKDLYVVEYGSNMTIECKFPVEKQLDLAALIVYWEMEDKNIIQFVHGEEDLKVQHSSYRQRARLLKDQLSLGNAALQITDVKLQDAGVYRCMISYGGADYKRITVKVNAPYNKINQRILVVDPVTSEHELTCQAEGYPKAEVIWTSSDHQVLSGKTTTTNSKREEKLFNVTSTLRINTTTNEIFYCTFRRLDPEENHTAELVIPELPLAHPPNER
Sequence (Q9NZQ7 19-238 limits assumed): as above
Assay: PD-L1/PD-L1 dimerization biochemical protein-protein interaction assay (ALPHA)
Format: binding
Settings: compound-induced PD-L1 dimerization, head prints '1 nM' (0.5 nM His-tagged PD-L1 and 0.5 nM FLAG-tagged PD-L1), read-out: AC50 PDL1 Dimer Alpha 1 nM
reported-endpoint: AC50 (nM)
Provide only the numeric value, understood in nM.

Query: Param item = COc1nc(-c2cccc(-c3cccc4c3CC[C@@H]4Oc3nc(OC)c(CN[C@@](C)(CO)C(=O)O)cc3Cl)c2Cl)ccc1CN[C@@H]1CCC[C@@H]1O ; retrieve measured AC50.
Response: 30.7

Query: Report AC50 for Cc1c(COc2cc(OCc3cncc(C#N)c3)c(CNC[C@@H](O)CC(=O)O)cc2Cl)cccc1-c1cccc(-c2nc3ccc(CNC[C@@H](O)CC(=O)O)cc3o2)c1C please.
Response: 107

Query: Value lookup for AC50; key = Cc1c(COc2cc(OCc3cncc(C#N)c3)c(CN[C@@](C)(CO)C(=O)O)cc2Cl)cccc1-c1cccc(-c2ccc(OCCc3cccnc3)c(CNCCO)c2)c1C
Response: 98.3

Query: GET /values?readout=AC50&item= COc1nc(OCc2cccc(-c3cccc(COc4nc(OC)c(CNCCCC(=O)O)cc4Cl)c3C)c2C)c(Cl)cc1CNCCCC(=O)O
Response: 260

Query: What does the record list as AC50 for COc1nc(O[C@H]2CCc3c(-c4cccc(-c5cnc(CN[C@@H]6CCC[C@@H]6O)c(OC)n5)c4Cl)cccc32)c(Cl)cc1CNC[C@@H]1CCC(=O)N1 ?
Response: 211

Query: // lookup AC50 for COc1nc(OCc2cccc(-c3cccc(-c4ccc5c(c4)C[C@@H](N)C5)c3Cl)c2Cl)c(Br)cc1CN[C@](C)(CO)C(=O)O
Response: 54.6

Query: Could you share which AC50 value was measured for COc1nc(O[C@H]2CCc3c(-c4cccc(-c5ccc(C6=NCCN6)c(OC)n5)c4Cl)cccc32)c(Br)cc1CN[C@](C)(CO)C(=O)O ?
Response: 11.8

Query: AC50 for COc1nc(-c2cccc(-c3cccc(-c4ccc5c(CNC[C@H]6CCC(=O)N6)cn(C)c5c4)c3Cl)c2Cl)ccc1CNC[C@H]1CCC(=O)N1 ?
Response: 352

Query: Any idea what AC50 was measured for COc1nc(-c2cccc(-c3cccc4c3CC[C@@H]4Oc3nc(OC)c(CN4CC[C@H](C(=O)O)C4)cc3Cl)c2Cl)ccc1CN1CC(C)(O)C1 ?
Response: 42.8

Query: Please give the measured AC50 for this molecule: COc1cc(COc2cccc(-c3cccc(COc4cc(OCc5cncc(C#N)c5)c(CNC[C@@H](O)CC(=O)O)cc4Cl)c3C)c2C)c(Cl)cc1CNC[C@@H](O)CC(=O)O
Response: 120

Query: Name the reported AC50 value associated with the molecule Cc1c(COc2nc(OC[C@@H]3CCC(=O)N3)c(CNCC(=O)O)cc2Br)cccc1-c1cccc(COc2nc(OC[C@@H]3CCC(=O)N3)c(CNCC(=O)O)cc2Br)c1C
Response: 237

Query: Please report the recorded AC50 for Cc1c(COc2cc(OCc3cncc(C#N)c3)c(CN[C@](C)(CO)C(=O)O)cc2Cl)cccc1-c1cccc(-c2ccc(OCCNCCO)c(S(C)(=O)=O)c2)c1C .
Response: 121

Query: State the recorded AC50 for this entry: Cc1c(COc2cc(OCc3cncc(C#N)c3)c(CN[C@@](C)(CO)C(=O)O)cc2Cl)cccc1-c1cccc(-c2cccc([C@@H](C)N)c2)c1C
Response: 84.7

Query: # AC50 lookup, item Cc1c(COc2cc(OCc3cncc(C#N)c3)c(CN[C@@](C)(CO)C(=O)O)cc2Cl)cccc1-c1cccc(-c2ccc(CN(C)C)cc2)c1Br
Response: 40.9

Query: Suppose we examine the molecule CN1CCCC1c1ccc(-c2cccc(-c3cccc4c3CC[C@@H]4Oc3nc(OCc4cncc(C#N)c4)c(CNCCO)cc3Cl)c2Cl)cc1 (some centres unmarked) ; what AC50 value has been reported?
Response: 74.8

Query: Reported AC50, molecule Cc1c(COc2cc(OCc3cncc(C#N)c3)c(CNC[C@@H](O)CC(=O)O)cc2Cl)cccc1-c1cccc(-c2ccc3c(CNC[C@@H](O)CC(=O)O)ccc(Cl)c3c2)c1C : ____
Response: 540

Query: Which measured AC50 value corresponds to COc1nc(-c2cccc(-c3cccc(COc4cc(OCc5cncc(C#N)c5)c(CN[C@@](C)(CO)C(=O)O)cc4Cl)c3C)c2C)ccc1C1=NCCN1 ?
Response: 47.8

Query: What does the record list as AC50 for CS(=O)(=O)c1cncc(COc2nc(O[C@H]3CCc4c(-c5cccc(-c6ccc(OCCN7CC[C@@H](O)C7)cc6)c5Cl)cccc43)c(Cl)cc2CNC[C@@H](O)CC(=O)O)c1 ?
Response: 22.9

Query: Which AC50 value belongs to Cc1c(COc2cc(OCc3cncc(C#N)c3)c(CN3CC[C@@H](O)C3)cc2Cl)cccc1-c1cccc(-c2ccc(OCCNC[C@@H](O)CC(=O)O)cc2)c1C ?
Response: 103

Query: Any idea what its AC50 is? The molecule is Cc1c(COc2cc(OCc3cncc(C#N)c3)c(CN[C@@](C)(CO)C(=O)O)cc2Cl)cccc1-c1cccc(-c2ccc(O[C@@H]3CCNC[C@H]3F)cc2)c1Cl
Response: 266
